Test system: NCI/ADR-RES ovarian
Test: NCI-60 one-dose screen, 48 h (100 = growth as untreated, 0 = no growth, -100 = all killed)
Details: 10 µM unless noted
About 83,000 compounds went through this panel and 20% of them were active in at least one assay; those are over-represented in the sample as a whole.
growth reference
Endpoint label: growth (%)

O=C1/C(=C/c2ccc([N+](=O)[O-])cc2)COc2ccc(O)cc21 = 92.1
O=C1C(=O)N(Cc2ccc(-c3ccccc3)cc2)c2ccc(OC(F)(F)F)cc21 = 32.6
Fc1cnccc1C1CC(c2ccc(N3CCNCC3)cc2)=NN1 (stereo unspecified) = 106
Cc1ccc(C[P+](c2ccccc2)(c2ccccc2)c2ccccc2)cc1 = 93.5
COc1cc(-c2cncn2-c2ccc(-c3nc4ccc(F)cc4s3)cc2)ccc1F = 80.3
COc1c(C(=O)Nc2ccc(C)c(Br)c2)ccc2ccccc12 = 84.6
